Data origin: ChEMBL document CHEMBL1147843

system: A498; test: Growth inhibition of human A498 cells after 48 hrs by sulforhodamine B assay relative to control; type: functional; details: A498, 48 h
For each of the compounds below, state its GI50.
Numbers only here, please. The scale is nM.

Reported GI50 for Cc1ccc2c(c1O)NC(O)C1CC(/C=C/C(N)=O)=CN1C2=O (centres undefined) [ANTHRAMYCIN] was 195

The reported value for `O=C1Nc2ccccc2C(=O)N2C=C(c3cccc4ccccc34)C[C@@H]12` in terms of GI50 is 3160

# GI50 (compound: `O=C1Nc2ccccc2C(=O)N2C=C(c3ccc(Br)cc3)C[C@@H]12` ) is 510
